FYI, the data here is from paper PMC2756588.

Target: T1, Lsb3, P43603
T1 sequence (P43603 385-451, looked up): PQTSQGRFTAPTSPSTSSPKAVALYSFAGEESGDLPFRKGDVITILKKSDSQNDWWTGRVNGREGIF
Assay: SPOT array
Details: median of control spots 406
measured_metric: SPOT intensity
Answer with a number only.

GAGERPRLVPRPINV 60
NPLPKEPRLPKRKVA 282
TYNRTAFQIPGDQSI 0

stdin: Consider the binder `YVRRRPRVRLEPLLS` and give its recorded SPOT intensity.
stdout: 0

stdin: Please report SPOT intensity for the following binder: `IKKRNKIRLPSGSPE`
stdout: 0

stdin: Please give measured SPOT intensity of the following entry: `LKPPIGRPPKFPKSP`
stdout: 3
